Test system: hiPS-CM
assay: Cellular viability (ATP depletion) in 2D monoculture
Assay type: cell-based
applied-conditions: Homo sapiens, 24 hours
Counter-ions that a name gives are not always drawn.
This section presents molecules with their documented IC50 values.

| molecule | units | IC50 |
| --- | --- | --- |
| COc1cccc2c1C(=O)c1c(O)c3c(c(O)c1C2=O)C[C@@](O)(C(=O)CO)C[C@@H]3O[C@H]1C[C@H](N)[C@H](O)[C@H](C)O1 [Doxorubicin HCl] | µM | 9.26 |
| CCN(CC)CCNC(=O)c1c(C)[nH]c(/C=C2\C(=O)Nc3ccc(F)cc32)c1C [Sunitinib Malate] | µM | 24.7 |

---

Test system: cardiac microtissues
assay: ER integrity (ER-Tracker blue imaging) in cardiac microtissues
Type: cell-based, human
applied-conditions: Homo sapiens; cardiac microtissues, 72 hours, geometric mean; read-out: ER integrity IC50
Structures can show the parent of a compound that is named as a salt.
endpoint-label: IC50

| compound | measurement-target | endpoint-label | result |
| --- | --- | --- | --- |
| CC(=O)[C@]1(O)Cc2c(O)c3c(c(O)c2[C@@H](O[C@H]2C[C@H](N)[C@H](O)[C@H](C)O2)C1)C(=O)c1ccccc1C3=O [Idarubicin HCl] | cardiac microtissues | IC50 | 1.67 µM |
| Cc1nc(Nc2ncc(C(=O)Nc3c(C)cccc3Cl)s2)cc(N2CCN(CCO)CC2)n1 [Dasatinib] | cardiac microtissues | IC50 | > 100 µM |
| CC(C)(C)c1ccc(C(O)CCCN2CCC(C(O)(c3ccccc3)c3ccccc3)CC2)cc1 (centres unmarked) [Terfenadine] | cardiac microtissues | IC50 | 23.7 µM |
| CC(C)NCC(O)c1ccc(O)c(O)c1 (centres unmarked) [Isoproterenol HCl] | cardiac microtissues | IC50 | 76.9 µM |
| Nc1nc2c(ncn2COCCO)c(=O)[nH]1 [Acyclovir] | cardiac microtissues | IC50 | > 100 µM |

---

Test system: hCF
assay: Mitochondrial membrane potential (ΔΨm) in 2D monoculture
applied-conditions: Homo sapiens, 24 h, read-out: Mitochondrial membrane potential (ΔΨm) IC50
Structures can show the parent of a compound that is named as a salt.
Item-by-item account of IC50

| compound | prefix-operator | IC50 (µM) |
| --- | --- | --- |
| COc1cccc2c1C(=O)c1c(O)c3c(c(O)c1C2=O)C[C@@](O)(C(=O)CO)C[C@@H]3O[C@H]1C[C@H](N)[C@H](O)[C@H](C)O1 [Doxorubicin HCl] | > | 50 |
| CCN(CC)CCNC(=O)c1c(C)[nH]c(/C=C2\C(=O)Nc3ccc(F)cc32)c1C [Sunitinib Malate] | = | 17.8 |
| CS(=O)(=O)CCNCc1ccc(-c2ccc3ncnc(Nc4ccc(OCc5cccc(F)c5)c(Cl)c4)c3c2)o1 [Lapatinib] | = | 42.9 |

---

System: hCF
assay: Mitochondrial membrane potential (ΔΨm) in 2D monoculture
applied-conditions: Homo sapiens, 72 h, read-out: Mitochondrial membrane potential (ΔΨm) IC50
pIC50: −log10 of the molar value. Counter-ions that a name gives are not always drawn.

| molecule | prefix-operator | pIC50 |
| --- | --- | --- |
| CS(=O)(=O)CCNCc1ccc(-c2ccc3ncnc(Nc4ccc(OCc5cccc(F)c5)c(Cl)c4)c3c2)o1 [Lapatinib] | = | 4.54 |
| CCN(CC)CCNC(=O)c1c(C)[nH]c(/C=C2\C(=O)Nc3ccc(F)cc32)c1C [Sunitinib Malate] | = | 4.94 |
| COc1cccc2c1C(=O)c1c(O)c3c(c(O)c1C2=O)C[C@@](O)(C(=O)CO)C[C@@H]3O[C@H]1C[C@H](N)[C@H](O)[C@H](C)O1 [Doxorubicin HCl] | < | 4.30 |

---

Test system: cardiac microtissues
assay: ER integrity (ER-Tracker blue imaging) in cardiac microtissues
Assay type: cell-based, human
applied-conditions: Homo sapiens; cardiac microtissues, 72 hours, geometric mean; read-out: ER integrity IC50
Method: Cardiac microtissues were stained with fluorescent probes in cell culture media, 40 µl media was removed and 40 µl of 2x multiplexed dye was added back to the well for 30 minutes at 37 °C, 5% CO2. Fluorescent probes used were ER-Tracker blue (2 µM) to measure endoplasmic reticulum (ER) integrity and TMRE (500 nM) to measure mitochondrial membrane potential (ΔΨm). […] Maximum projection images were imported and analysed in the Columbus Platform (v2.7, Perkin Elmer Inc.).
Counter-ions that a name gives are not always drawn.

| compound | measurement-target | IC50 |
| --- | --- | --- |
| C#Cc1cccc(Nc2ncnc3cc(OCCOC)c(OCCOC)cc23)c1 | cardiac microtissues | > 30 µM |
| Cc1ccc(C)c(OCCCC(C)(C)C(=O)O)c1 | cardiac microtissues | > 100 µM |
| CS(=O)(=O)CCNCc1ccc(-c2ccc3ncnc(Nc4ccc(OCc5cccc(F)c5)c(Cl)c4)c3c2)o1 | cardiac microtissues | > 100 µM |
| CC(C(=O)O)c1cccc(C(=O)c2ccccc2)c1 (stereo not drawn) | cardiac microtissues | > 100 µM |
| O=C1CC2(CCCC2)CC(=O)N1CCCCN1CCN(c2ncccn2)CC1 [Buspirone HCl] | cardiac microtissues | > 100 µM |
| Nc1cc(N2CCCCC2)nc(N)[n+]1[O-] | cardiac microtissues | > 50 µM |
